- tested on: T1, human BAFF (10056-HNCH, Sino biological) (human, UniProt Q9Y275 134-285)
- T1 construct: Bought protein
- test details: ELISA, BAFF coated, fusion protein titrated
outcome measure: EC50 (nM)
Write the answer as a number in nM, unit excluded.

{"columns": ["binder", "EC50, nM"],
 "data": [
  ["TACI-9-14Fc (Fc fusion, two identical polypeptides) STSCRKEQGKFYDHLLRDCISCASICGQHPKQCAAYCENKLDKTHTCPPCPAPEAEGAPSVFLFPPKPKDTLMISRTPEVTCVVVDVSHEDPEVKFNWYVDGVEVHNAKTKPREEQYNSTYRVVSVLTVLHQDWLNGKEYKCKVSNKALPSSIEKTISKAKGQPREPQVYTLPPSRDELTKNQVSLTCLVKGFYPSDIAVEWESNGQPENNYKTTPPVLDSDGSFFLYSKLTVDKSRWQQGNVFSCSVMHEALHNHYTQKSLSLSPGK", 0.223]
]}

Moving on to the next binder.
Prompt: Using the record for TACI-9-9Fc (Fc fusion, two identical polypeptides) SRSCRKEQGKFYDHLLRTCISCASICGQHPKQCARFCENKLDKTHTCPPCPAPEAEGAPSVFLFPPKPKDTLMISRTPEVTCVVVDVSHEDPEVKFNWYVDGVEVHNAKTKPREEQYNSTYRVVSVLTVLHQDWLNGKEYKCKVSNKALPSSIEKTISKAKGQPREPQVYTLPPSRDELTKNQVSLTCLVKGFYPSDIAVEWESNGQPENNYKTTPPVLDSDGSFFLYSKLTVDKSRWQQGNVFSCSVMHEALHNHYTQKSLSLSPGK , report its EC50.
Response: 0.937
